Test system: MS2 coat protein
Assay: apparent Kd, MS2 coat protein; higher = weaker binding; RNA-MaP array; FMN 200 µM where present
Conditions: ligand present: flavin mononucleotide; designed as: OFF switch for flavin mononucleotide
Outcome label depends on apparent Kd relative to 80 nM: at/above gives T, below gives F.

UGGACCGAGCUGUCGGUUGACUCGAAGGAUAUGACAUGAGGAUCACCCAUGUGGGAUCUAAAUUGUCAGAAGGUUGGUUCUGGG    T
AACAACUCUGUGAGGAUAUGCAAUUGUUGAUCAAGGCAGAAGGCACAUGAGGAUCACCCAUGUUCCUACAAGGG    T
AAAAAACAUGAGGAUCACCCAUGUGAGGAUAUCCAAAAGUCAAAGAAAAAGACGAAAAGGAGAAGGCACAAAAA    T

query: State whether the measured apparent Kd reaches 80 nM, counting equality as reaching it, for `UAUAUAUAGUAAGGAUAUGUAUUAAUUCUAUAAACAGAAGGUACUGACAUGAGGAUCACCCAUGUUUUAGUGUGGGCAUGUAGA`
result: F

query: Also check `UUAUACGCUGAGGAUAUUAUCACUGAGAGGUGAUGAGAAGGCGGUACAUGAGGAUCACCCAUGUCUAUGGGCAG`
result: T

query: Also check `UAUAAGUCUCAUGUAACAUGAGGAUCACCCAUGUCAUAUUGUAGAAGGAUGAUAAUAUGUAUAUCAUAGGAUAUACUAUAUGUU`
result: F

query: Also check `UAGAUGGGAGGAUAUGCAUAGAUACAGAUUCAUGUAGUGCUACAUGAGGAUCACCCAUGUAGAAGGCCCGUCUU`
result: T
